Origin of the recorded values: the supplement of paper PMC6757056

B1: library; a variant is named by its letters at N, in order (parent)
chain: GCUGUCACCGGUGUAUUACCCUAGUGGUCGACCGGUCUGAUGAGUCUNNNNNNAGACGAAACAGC

Variants of: B1
Assay: FACS-Seq fitted mean relative fluorescence mCherry/BFP with ligand (log10 relative fluorescence); ligand: hypoxanthine (xanthine aptamer); ligand concentration (+) FACS-Seq: 5 mM; higher = higher reporter protein expression
Settings: HEK293T, ligand present: yes
Give y when the value for FACS-Seq fitted mean (log10) is at least 0.5. Give n when it is less.

Some solved entries appear below for comparison.
Enquiry: Kindly determine if FACS-Seq fitted mean (log10) recorded for GAGUAA is above or exactly 0.5.
Return: n

Enquiry: Kindly determine if FACS-Seq fitted mean (log10) recorded for AUCCAG is above or exactly 0.5.
Return: n

Enquiry: Kindly determine if FACS-Seq fitted mean (log10) recorded for GAAGUG is above or exactly 0.5.
Return: n

Enquiry: Kindly determine if FACS-Seq fitted mean (log10) recorded for CAGGGG is above or exactly 0.5.
Return: n

Enquiry: Kindly determine if FACS-Seq fitted mean (log10) recorded for GUGUGG is above or exactly 0.5.
Return: y

Next, consider the following variant.
Enquiry: Kindly determine if FACS-Seq fitted mean (log10) recorded for CACGUA is above or exactly 0.5.
Return: y
